# system.under.test: AChE (Homo sapiens)
# Sequence (P22303 32-614): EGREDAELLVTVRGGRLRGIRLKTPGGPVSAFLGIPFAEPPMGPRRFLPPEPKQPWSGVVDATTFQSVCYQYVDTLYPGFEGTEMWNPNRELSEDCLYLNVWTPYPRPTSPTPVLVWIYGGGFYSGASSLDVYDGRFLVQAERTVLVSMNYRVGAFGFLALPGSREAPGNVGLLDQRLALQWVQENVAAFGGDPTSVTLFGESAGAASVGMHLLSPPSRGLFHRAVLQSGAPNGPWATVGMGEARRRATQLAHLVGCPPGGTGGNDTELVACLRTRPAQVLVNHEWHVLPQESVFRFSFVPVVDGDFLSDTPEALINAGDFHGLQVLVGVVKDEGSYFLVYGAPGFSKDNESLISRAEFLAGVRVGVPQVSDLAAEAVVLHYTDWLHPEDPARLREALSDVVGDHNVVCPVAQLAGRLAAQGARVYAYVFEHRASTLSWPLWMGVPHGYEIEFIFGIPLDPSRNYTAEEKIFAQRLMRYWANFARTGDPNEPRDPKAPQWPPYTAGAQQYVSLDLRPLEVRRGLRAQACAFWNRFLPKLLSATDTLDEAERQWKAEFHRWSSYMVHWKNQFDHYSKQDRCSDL
# method.notes: biochemical
measured.parameter: IC50 (µM)
Give the value in µM but do not write µM after it.

Sample `COc1ccc(-c2cc(=O)c3c(OC)cc(OC)cc3o2)cc1` ; IC50 observed: 106

Sample `COc1ccc(-c2oc3cc(OC)cc(OC)c3c(=O)c2OC)cc1` ; IC50 observed: 209

Sample `COc1cc(OC)c2c(=O)cc(-c3ccccc3)oc2c1` ; IC50 observed: 181
